- Target desc: DNA topoisomerase 2-alpha (Homo sapiens) (UniProt P11388)
- Sequence (P11388 whole entry): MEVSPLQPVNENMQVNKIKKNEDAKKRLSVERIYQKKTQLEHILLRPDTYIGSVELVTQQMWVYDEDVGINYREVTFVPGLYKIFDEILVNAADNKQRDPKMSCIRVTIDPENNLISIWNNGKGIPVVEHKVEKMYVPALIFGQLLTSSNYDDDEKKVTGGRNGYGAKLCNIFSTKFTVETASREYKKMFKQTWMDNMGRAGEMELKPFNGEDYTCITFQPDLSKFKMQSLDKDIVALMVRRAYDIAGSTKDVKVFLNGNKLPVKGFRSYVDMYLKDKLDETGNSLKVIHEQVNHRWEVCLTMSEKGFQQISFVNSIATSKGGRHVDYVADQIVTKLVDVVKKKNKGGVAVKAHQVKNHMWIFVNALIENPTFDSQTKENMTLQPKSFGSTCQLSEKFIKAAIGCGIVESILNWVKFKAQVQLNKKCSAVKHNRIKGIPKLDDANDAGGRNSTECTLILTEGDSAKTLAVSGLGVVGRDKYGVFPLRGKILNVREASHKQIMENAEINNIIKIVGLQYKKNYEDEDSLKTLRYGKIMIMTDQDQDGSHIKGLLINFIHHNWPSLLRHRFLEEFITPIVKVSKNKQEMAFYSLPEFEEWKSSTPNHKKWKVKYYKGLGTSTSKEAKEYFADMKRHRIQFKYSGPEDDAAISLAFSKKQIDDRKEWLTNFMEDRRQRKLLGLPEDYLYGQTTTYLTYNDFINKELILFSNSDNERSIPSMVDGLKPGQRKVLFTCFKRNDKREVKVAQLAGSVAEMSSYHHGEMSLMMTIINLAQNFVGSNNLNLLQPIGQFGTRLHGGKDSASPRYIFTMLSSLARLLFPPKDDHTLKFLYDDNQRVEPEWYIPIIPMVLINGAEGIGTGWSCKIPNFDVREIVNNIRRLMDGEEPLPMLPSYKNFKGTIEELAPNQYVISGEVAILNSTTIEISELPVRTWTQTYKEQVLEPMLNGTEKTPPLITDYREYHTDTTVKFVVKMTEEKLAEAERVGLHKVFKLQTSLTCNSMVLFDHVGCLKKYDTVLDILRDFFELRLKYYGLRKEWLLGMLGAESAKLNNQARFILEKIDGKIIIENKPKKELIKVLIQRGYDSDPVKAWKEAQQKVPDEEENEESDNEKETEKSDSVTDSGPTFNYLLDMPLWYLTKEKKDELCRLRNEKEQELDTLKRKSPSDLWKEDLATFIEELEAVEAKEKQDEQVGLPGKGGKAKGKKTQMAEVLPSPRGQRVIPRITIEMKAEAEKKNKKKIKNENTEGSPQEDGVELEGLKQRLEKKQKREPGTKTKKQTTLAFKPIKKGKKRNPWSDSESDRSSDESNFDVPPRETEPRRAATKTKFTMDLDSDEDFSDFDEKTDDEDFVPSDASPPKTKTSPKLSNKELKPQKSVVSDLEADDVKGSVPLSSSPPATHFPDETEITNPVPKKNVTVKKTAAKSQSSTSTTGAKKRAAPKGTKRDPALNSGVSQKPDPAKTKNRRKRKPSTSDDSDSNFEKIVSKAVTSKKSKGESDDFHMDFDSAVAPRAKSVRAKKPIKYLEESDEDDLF
- Protocol summary: Inhibition of recombinant human topoisomerase 2alpha assessed as relaxation of supercoiled plasmid pBR322 DNA at 20 uM by agarose gel electrophoresis relative to control
Observed property: inhibition (%)
Kindly answer with a numeric value in %, unit omitted.

As a guide, the following entries are already answered.
OC1c2ccccc2-c2nc(-c3ccc(OC(F)(F)F)cc3)cc(-c3ccccc3)c21 (stereo unspecified) | 8.7
OC1c2ccccc2-c2nc(-c3cccc(OC(F)(F)F)c3)cc(-c3ccccc3)c21 (stereo unspecified) | 12.2
OC1c2ccccc2-c2nc(-c3ccccc3C(F)(F)F)cc(-c3ccccc3)c21 (stereo unspecified) | 8.1

Query: # inhibition lookup, item OC1c2ccccc2-c2nc(-c3ccccc3OC(F)(F)F)cc(-c3ccccc3)c21 (stereo unspecified)
Result: 13.8

Query: # inhibition lookup, item OC1c2ccccc2-c2nc(-c3ccc(C(F)(F)F)cc3)cc(-c3ccccc3)c21 (stereo unspecified)
Result: 9.9

Query: # inhibition lookup, item OC1c2ccccc2-c2nc(-c3cccc(C(F)(F)F)c3)cc(-c3ccccc3)c21 (stereo unspecified)
Result: 9.3

---

- Protocol summary: Cytotoxicity against human MRC5 cells after 72 hrs by EZ-Cytox colorimetric assay
- Assay type: toxicity, cell-based
Observed property: IC50 at 72 h

Query: # IC50 at 72 h lookup, item O=C1c2ccccc2-c2nc(-c3ccc(Br)cc3)cc(-c3ccccc3)c21
Result: > 10 µM

---

# maps each entry to its inhibition
- Target desc: DNA topoisomerase 1 (Homo sapiens)
- Protocol summary: Inhibition of recombinant human topoisomerase 1 assessed as relaxation of supercoiled plasmid pBR322 DNA at 20 uM by agarose gel electrophoresis (reference value: 38.3%)
Kindly answer with a numeric value in %, unit omitted.

As a guide, the following entries are already answered.
O=C1c2ccccc2-c2nc(-c3ccccc3C(F)(F)F)cc(-c3ccccc3)c21 | 15.6
O=C1c2ccccc2-c2nc(-c3ccc(C(F)(F)F)cc3)cc(-c3ccccc3)c21 | 8.1
O=C1c2ccccc2-c2nc(-c3ccccc3OC(F)(F)F)cc(-c3ccccc3)c21 | 0
O=C1c2ccccc2-c2nc(-c3cccc(OC(F)(F)F)c3)cc(-c3ccccc3)c21 | 8.5

Query: # inhibition lookup, item O=C1c2ccccc2-c2nc(-c3cccc(C(F)(F)F)c3)cc(-c3ccccc3)c21
Result: 22.5

Query: # inhibition lookup, item O=C1c2ccccc2-c2nc(-c3ccc(OC(F)(F)F)cc3)cc(-c3ccccc3)c21
Result: 3.7
